This collection of values is drawn from paper PMC5540273.

# Tested on: IKK-alpha
# Construct: gene CHUK
# experimental.context: concentration: 1 μM,replicates: in singlicate; n = 1;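 note: KINOMEscan kinase panel screen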
# %Inh listing for each entry below
// return numeric value only (unit: %, not printed)

Answered cases to consult:
| compound | measure.unit | %Inh |
| --- | --- | --- |
| FC(F)(F)c1cc(Br)cc(Nc2nccc(-c3cnn4ncccc34)n2)c1 [GW810578] | % | 13 |
| C[C@@H](Oc1cc(-n2cnc3cc(-c4cnn(C)c4)ccc32)sc1C(N)=O)c1ccccc1Cl [GSK580432] | % | 0 |
| CCN1CCN(CCCC(=O)Nc2n[nH]c3nc(-c4ccc(O)cc4)c(Br)cc23)CC1 [SB-731579] | % | 0 |

Given the entry Cc1cccc(-c2nc(Nc3ccncc3)c3sccc3n2)n1 [GW869641] , report its measured %Inh.
32

Same read-out for CS(=O)(=O)Nc1ccc(-c2ccnc3[nH]ccc23)cc1 [GSK993273] ?
89

Same read-out for Nc1nccc(-c2ccc3c(N)n[nH]c3c2)n1 [GSK1034945] ?
76

Same read-out for "CN(c1cccc(CNc2nc(Nc3ccc4c(c3)CC(=O)N4)ncc2C(F)(F)F)c1)S(C)(=O)=O" ?
24

Same read-out for "Cn1ccc2ncnc(Oc3ccc(NC(=O)Nc4cccc(C(F)(F)F)c4)c(Cl)c3)c21" ?
53

Same read-out for CN(c1ccc2c(c1)nc(NCc1ccc(F)cc1)n2C)c1ccnc(Nc2ccc(CS(C)(=O)=O)cc2)n1.Cl [GW813244] ?
15

Same read-out for Cc1cccc2c(-c3ccncc3)c(-c3ccc(F)cc3)nn12.Cl [GW461487] ?
0

----------
# System: MAP3K3
# experimental.context: concentration: 1 μM,replicates: in singlicate; n = 1
# %Inh listing for each entry below
// return numeric value only (unit: %, not printed)

Given the entry "O=C(NCC1CC1)c1ccc(-c2cc(C(=O)NC3CC3)ccc2F)cc1" , report its measured %Inh.
0

Same read-out for "FC(F)(F)c1cc(Br)cc(Nc2nccc(-c3cnn4ncccc34)n2)c1" ?
29

Same read-out for "Cc1n[nH]c2cc(Nc3ccnc(Nc4cccc(CN5CCOCC5)c4)n3)ccc12" ?
0

Same read-out for "CC(=O)c1c(-c2ccncc2)[nH]c(-c2ccncc2)c1C" ?
0

Same read-out for "CC(=O)Nc1ccc(-c2cc3ncnc(SCC(=O)O)c3s2)cc1" ?
1

Same read-out for "O=C(Nc1cccc(Oc2ccc3nccn3n2)c1)Nc1cccc(C(F)(F)F)c1" ?
10

----------
# Tested on: DDR2
# experimental.context: concentration: 1 μM,replicates: in singlicate; n = 1
Exam item: assign Criterion met to entries whose %Inh is below 8% and Criterion not met to entries at or above 8%. Note that a value of exactly 8% receives Criterion not met.

Recorded results for 5 compounds are shown here.
| compound | label |
| --- | --- |
| CC(=O)Nc1nc2cnc(Nc3cc(NC(=O)c4cccc(CC(C)(C)C#N)c4)ccc3C)nc2s1 | Criterion not met |
| CCn1c(-c2nonc2N)nc2cncc(Br)c21 | Criterion not met |
| COc1cc2ncn(-c3cc(OCC4CCCCC4)c(C(N)=O)s3)c2cc1OC | Criterion met |
| COC(=O)c1cccc(NC(=O)NC2CCN(c3ccnc(Nc4cc(OC)c(OC)c(OC)c4)n3)C2)c1 (centres unmarked) | Criterion not met |
| NC(=O)Nc1sc(-c2ccc(F)cc2)cc1C(N)=O | Criterion not met |

For "CCn1c(-c2nonc2N)nc2cncc(CNC3CCNCC3)c21.Cl" , is the recorded %Inh below the cut-off of 8%?
Criterion not met

Same read-out for COc1cc(Nc2nccc(N3CCC(NC(=O)c4cccc(C#N)c4)C3)n2)cc(OC)c1OC (centres unmarked) ?
Criterion not met

Same read-out for "CC(=O)c1c(-c2ccncc2)[nH]c(-c2ccncc2)c1C" ?
Criterion met

Same read-out for "O=C(Nc1n[nH]c2cc(-c3ccco3)ccc12)C1CC1" ?
Criterion met

Same read-out for "c1ccc(Oc2ccc(Nc3ccnc4ccc(-c5ccccn5)cc34)cc2)cc1" ?
Criterion met
